test system: Mus musculus; assay: Anticonvulsant activity against maximal electroshock-induced seizures in mouse at 300 mg/kg, ip after 4 hrs; type: functional, organism-based; design: dose 300 mg/kg
The source made the active and inactive calls. The rule behind the calls is not given here.
Log the outcome using a class from active, inactive

Examples from the recorded data:
compound	label_value
Cl.O=c1c2ccc(Cl)cc2oc2ccc(CNCCCO)cc12	inactive
CC(CO)NC(=O)c1ccc2oc3cc(Cl)ccc3c(=O)c2c1 (racemic)	inactive
CC(CCl)NCc1ccc2oc3cc(Cl)ccc3c(=O)c2c1.Cl (racemic)	inactive
C[C@H](O)CNCc1ccc2oc3cc(Cl)ccc3c(=O)c2c1	inactive
C[C@@H](O)CNCc1ccc2oc3cc(Cl)ccc3c(=O)c2c1	inactive
CCC(O)CNCc1ccc2oc3cc(Cl)ccc3c(=O)c2c1 (racemic)	active
O=C(N[C@@H]1CCCC[C@H]1O)c1ccc2oc3ccccc3c(=O)c2c1 (racemic)	inactive
C[C@@H](CO)NCc1ccc2oc3cc(Cl)ccc3c(=O)c2c1	active
CC[C@H](CO)NCc1ccc2oc3cc(Cl)ccc3c(=O)c2c1	active
O=c1c2ccc(Cl)cc2oc2ccc(CNCCCCCO)cc12	active

Query :: What was the test verdict on CCOC(=O)CNC(=O)c1ccc2oc3ccccc3c(=O)c2c1 ?
Result :: inactive

Query :: What was the test verdict on C[C@@H](CO)N(C)Cc1ccc2oc3cc(Cl)ccc3c(=O)c2c1 ?
Result :: active

Query :: What was the test verdict on CC(CCl)N(C)Cc1ccc2oc3cc(Cl)ccc3c(=O)c2c1.Cl (stereo unspecified) ?
Result :: inactive

Query :: What was the test verdict on CC(CO)NC(=O)c1ccc2oc3ccccc3c(=O)c2c1 (stereo unspecified) ?
Result :: inactive

Query :: What was the test verdict on CC[C@@H](CO)NCc1ccc2oc3cc(Cl)ccc3c(=O)c2c1 ?
Result :: active

Query :: What was the test verdict on O=c1c2ccc(Cl)cc2oc2ccc(CNCCO)cc12 ?
Result :: active

Query :: What was the test verdict on C[C@H](CO)NCc1ccc2oc3cc(Cl)ccc3c(=O)c2c1 ?
Result :: active

Query :: What was the test verdict on C[C@@H](CCl)NCc1ccc2oc3cc(Cl)ccc3c(=O)c2c1.Cl ?
Result :: active

Query :: What was the test verdict on CC(C)(CCO)NCc1ccc2oc3cc(Cl)ccc3c(=O)c2c1 ?
Result :: inactive

Query :: What was the test verdict on O=C(NCCCCO)c1ccc2oc3ccccc3c(=O)c2c1 ?
Result :: inactive

Query :: What was the test verdict on NC(=O)CNC(=O)c1ccc2oc3ccccc3c(=O)c2c1 ?
Result :: inactive

====

tested on: Rattus norvegicus; assay: Neurotoxicity in rat at 30 mg/kg, po after 1 hr by rotarod test; type: toxicity, organism-based; design: dose 30 mg/kg, route oral; conditions: in vivo
value_type: Neurotoxicity

compound	value_type	result
CC(C)(CCO)NCc1ccc2oc3cc(Cl)ccc3c(=O)c2c1	Neurotoxicity	Not Active
CCC(O)CNCc1ccc2oc3cc(Cl)ccc3c(=O)c2c1 (racemic)	Neurotoxicity	Not Active
CC[C@@H](CO)NCc1ccc2oc3cc(Cl)ccc3c(=O)c2c1	Neurotoxicity	Not Active
CCN(CCO)Cc1ccc2oc3cc(Cl)ccc3c(=O)c2c1	Neurotoxicity	Not Active
C[C@@H](CO)NCc1ccc2oc3cc(Cl)ccc3c(=O)c2c1	Neurotoxicity	Not Active

Per the reported Rattus norvegicus data, C[C@H](CO)NCc1ccc2oc3cc(Cl)ccc3c(=O)c2c1 has Neurotoxicity of Not Active

Per the reported Rattus norvegicus data, CC(CCl)NCc1ccc2oc3cc(Cl)ccc3c(=O)c2c1.Cl (racemic) has Neurotoxicity of Not Active

Per the reported Rattus norvegicus data, Cl.O=c1c2ccc(Cl)cc2oc2ccc(CNCCCO)cc12 has Neurotoxicity of Not Active
